Target: T1, human tenascin-C rCd4-His-FBG (rat; human, UniProt P05540 207-392, limits assumed)
T1 construct: domain: domains 3 and 4; C-terminal FBG fusion; biotinylated in the ELISA and HTRF screens; also called Hu TNC; human TNC rCd4-His-FBG; not shown: 6His tag
T1 sequence (chain (part 1 of 2)): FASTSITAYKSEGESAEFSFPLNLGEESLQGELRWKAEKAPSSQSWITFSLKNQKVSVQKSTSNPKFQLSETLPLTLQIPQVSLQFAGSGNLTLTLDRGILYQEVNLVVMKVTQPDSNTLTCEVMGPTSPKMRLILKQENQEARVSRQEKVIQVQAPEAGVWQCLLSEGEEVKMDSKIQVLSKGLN
T1 sequence (chain (part 2 of 2)): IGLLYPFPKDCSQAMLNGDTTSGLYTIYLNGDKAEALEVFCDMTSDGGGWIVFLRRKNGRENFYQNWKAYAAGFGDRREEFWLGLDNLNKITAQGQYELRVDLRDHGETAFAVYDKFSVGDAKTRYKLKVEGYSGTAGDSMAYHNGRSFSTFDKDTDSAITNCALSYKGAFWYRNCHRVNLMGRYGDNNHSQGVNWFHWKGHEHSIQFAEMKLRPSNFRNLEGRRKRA
Assay: HTRF competition; competitor d2-labelled B12 IgG
measurement_type: % inhibition of FRET signal

binder	% inhibition of FRET signal
162_02_C6 scFv (scFv, V domains shown, not shown: small tags and cut ends, E. coli supernatant scFv) VH: EVRLVQSGAEVKKPGASVKVSCKVSGYTLTELSMHWVRQAPGKGLEWMGGFDPEDGETIYAQKFQGRVTMTEDTSTDTAYMELSSLRSEDTAVYYCATAQKETYALTYWGQGTLVTVSS VL: DIQMTQSPASLPTSVGDRVTITCRASQYIQGFLNWYQQKPGKAPRLLIYAASTLQDGVPSRFSGSGYGTDFTLTISSLQPEDFATYYCQNQYAGPWTFGQGTKVEIK	≥ 83%
162_02_C1 scFv (scFv, V domains shown, not shown: small tags and cut ends, E. coli supernatant scFv) VH: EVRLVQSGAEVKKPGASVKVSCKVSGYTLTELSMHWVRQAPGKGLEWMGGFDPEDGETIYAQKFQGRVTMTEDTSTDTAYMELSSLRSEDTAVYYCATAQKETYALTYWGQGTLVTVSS VL: DIQMTQSPASLPTSVGDRVTITCRASQYIQGFLNWYQQKPGKAPRLLIYAASTLQDGVPSRFSGSGYGTDFTLTISSLQPEDFATYYCLHHYRAPWTFGQGTKVEIK	≥ 83%

Now for another entry.
I would be grateful if you could share the reported % inhibition of FRET signal for 161_01_A12 scFv (scFv, V domains shown, not shown: small tags and cut ends, E. coli supernatant scFv) VH: EVRLVQSGAEVKKPGASVKVSCKVSGYTLTELSMHWVRQAPGKGLEWMGGFDPEDGETIYAQKFQGRVTMTEDTSTDTAYMELSSLRSEDTAVYYCATAQPTALANTYWGQGTLVTVSS VL: DIQMTQSPASLPTSVGDRVTITCRASQYIQGFLNWYQQKPGKAPRLLIYAASTLQDGVPSRFSGSGYGTDFTLTISSLQPEDFATYYCQQSYSTPWTFGQGTKVEIK . ≥ 90%
